Test system: Yersinia pseudotuberculosis
Assay: growth AUC normalised to DMSO control (fraction of control); higher = less growth inhibition, active = hit call of the paper;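 active = AUC significantly below DMSO controls by Student t-fit with adjusted P under 0.01; inactive = not significantly reduced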
Conditions: 20 µM
Structures can show the parent of a compound that is named as a salt.
Outcomes: label 1 = active, label 0 = inactive

| compound | targetOrTestSystem | qualitativeLabel |
| --- | --- | --- |
| CCc1cccc2c3c([nH]c12)C(CC)(CC(=O)O)OCC3 (configuration not stated) [Etodolac] | Yersinia pseudotuberculosis | label 0 |
| CCOC(=O)C1=C[C@]2(CC)CCCN3CCc4c(n1c1ccccc41)[C@@H]32 [Vinpocetine] | Yersinia pseudotuberculosis | label 0 |
| CC(=O)OCC(=O)[C@@]12OC(C)(C)O[C@@H]1C[C@H]1[C@@H]3C[C@H](F)C4=CC(=O)C=C[C@]4(C)[C@@]3(F)[C@@H](O)C[C@@]12C [Fluocinonide] | Yersinia pseudotuberculosis | label 0 |
| CN1CCN(C2=Nc3cc(Cl)ccc3Nc3ccccc32)CC1 [Clozapine] | Yersinia pseudotuberculosis | label 0 |
| CCCCc1nc(Cl)c(CO)n1Cc1ccc(-c2ccccc2-c2nnn[nH]2)cc1 [Losartan] | Yersinia pseudotuberculosis | label 0 |
| Cc1cccc(C)c1NC(=O)CN1CCN(CCCC(c2ccc(F)cc2)c2ccc(F)cc2)CC1 [Lidoflazine] | Yersinia pseudotuberculosis | label 0 |
| O=C1NCCN1CCN1CCC(c2cn(-c3ccc(F)cc3)c3ccc(Cl)cc23)CC1 [Sertindole] | Yersinia pseudotuberculosis | label 0 |
| COc1ccc(C(=O)NCc2cccnc2)cc1C(=O)NCc1cccnc1 [Picotamide monohydrate] | Yersinia pseudotuberculosis | label 0 |
| CN(C)CCN(Cc1ccccc1)c1ccccn1 [Tripelennamine hydrochloride] | Yersinia pseudotuberculosis | label 0 |
| CCCOc1ccccc1-c1nc2[nH]nnc2c(=O)[nH]1 [Zaprinast] | Yersinia pseudotuberculosis | label 0 |
| C[N+](C)(CCOc1ccccc1)Cc1ccccc1.O=C([O-])c1cc2ccccc2cc1O [Bephenium hydroxynaphthoate] | Yersinia pseudotuberculosis | label 0 |
| COc1cc(NC(C)CCCN)c2ncccc2c1 (configuration not stated) [Primaquine diphosphate] | Yersinia pseudotuberculosis | label 0 |
| CC[N+](CC)(CC)CCOc1cccc(OCC[N+](CC)(CC)CC)c1OCC[N+](CC)(CC)CC [Gallamine triethiodide] | Yersinia pseudotuberculosis | label 0 |
| CC1CS(=O)(=O)CCN1/N=C/c1ccc([N+](=O)[O-])o1 (configuration not stated) [Nifurtimox] | Yersinia pseudotuberculosis | label 0 |
| NNc1nncc2ccccc12 [Hydralazine hydrochloride] | Yersinia pseudotuberculosis | label 0 |
| Cc1c(N(C)CS(=O)(=O)O)c(=O)n(-c2ccccc2)n1C [Dipyrone sodium salt] | Yersinia pseudotuberculosis | label 0 |
| CCN1CCN(C(=O)N[C@@H](C(=O)N[C@@H]2C(=O)N3C(C(=O)O)=C(CSc4nnnn4C)CS[C@H]23)c2ccc(O)cc2)C(=O)C1=O [Cefoperazone dihydrate] | Yersinia pseudotuberculosis | label 1 |
